tested on: LS-180 (Colorectal Carcinoma); assay: Bliss excess, mean over the matrix (fraction); higher = more synergy;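 note: after 72 h of two-drug dosing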
Quantity Name: Bliss excess
Just the number.

Incoming: Output measured Bliss excess for this item: CCN(CCO)CCCOc1ccc2c(Nc3cc(CC(=O)Nc4cccc(F)c4)[nH]n3)ncnc2c1 [AZD2811] + C=CCn1c(=O)c2cnc(Nc3ccc(N4CCN(C)CC4)cc3)nc2n1-c1cccc(C(C)(C)O)n1 [AZD1775] (first compound max 1 µM, partner max 1 µM)
Outgoing: 0.0269

Incoming: Return Bliss excess for the following molecule: CN(CCO)CC[C@H](CSc1ccccc1)Nc1ccc(S(=O)(=O)NC(=O)c2ccc(N3CCC([C@@H](O)c4ccccc4-c4ccc(Cl)cc4)CC3)cc2)cc1S(=O)(=O)C(F)(F)F [AZD4320] + CS(=O)(=O)CCNCc1ccc(-c2ccc3ncnc(Nc4ccc(OCc5cccc(F)c5)c(Cl)c4)c3c2)o1 [Lapatinib] (first compound max 1 µM, 7x7, partner max 10 µM)
Outgoing: -0.0521

Incoming: Respond only with Bliss excess recorded for CC(=O)Nc1cccc(-n2c(=O)n(C3CC3)c(=O)c3c(Nc4ccc(I)cc4F)n(C)c(=O)c(C)c32)c1 [Trametinib] + Cc1nc(-c2cn3c(n2)-c2ccc(-c4cnn(C(C)(C)C(N)=O)c4)cc2OCC3)n(C(C)C)n1 [Taselisib] (first compound max 1 µM, 7x7, partner max 10 µM)
Outgoing: 0.0957

Incoming: Return reported Bliss excess. Input molecule: CCc1c2c(nc3ccc(O)cc13)-c1cc3c(c(=O)n1C2)COC(=O)[C@]3(O)CC [SN-38] + O=C(c1cc(Cc2n[nH]c(=O)c3ccccc23)ccc1F)N1CCN(C(=O)C2CC2)CC1 [Olaparib] (first compound max 0.3 µM, 7x7, partner max 10 µM)
Outgoing: 0.064

Incoming: Entry Cn1cnc2c(F)c(Nc3ccc(Br)cc3Cl)c(C(=O)NOCCO)cc21 [Selumetinib] + C[C@@H]1COCCN1C2=NC(=NC(=C2)C3(CC3)[S@](=N)(=O)C)C4=C5C=CNC5=NC=C4 [AZD6738] (first compound max 10 µM, 7x7, partner max 10 µM) needs its Bliss excess filled in; supply it.
Outgoing: -0.0516

Incoming: Determine its reported Bliss excess: CN(CCO)CC[C@H](CSc1ccccc1)Nc1ccc(S(=O)(=O)NC(=O)c2ccc(N3CCC([C@@H](O)c4ccccc4-c4ccc(Cl)cc4)CC3)cc2)cc1S(=O)(=O)C(F)(F)F [AZD4320] + C=CCn1c(=O)c2cnc(Nc3ccc(N4CCN(C)CC4)cc3)nc2n1-c1cccc(C(C)(C)O)n1 [AZD1775] (first compound max 1 µM, partner max 1 µM)
Outgoing: 0.0046

Incoming: Return Bliss excess (reported value) for this molecule: CN(C)CCCOc1ccc(-c2ccc3ncc4c(c3c2)n(C2CCOCC2)c(=O)n4C)cn1 [AZD0156] + O=C(c1cc(Cc2n[nH]c(=O)c3ccccc23)ccc1F)N1CCN(C(=O)C2CC2)CC1 [Olaparib] (first compound max 3 µM, partner max 3 µM)
Outgoing: -0.002

----------
So I've got a bunch of compounds here, and I need their combination Emax values.
test system: EC-GI-10 (Esophageal Squamous Cell Carcinoma); assay: combination Emax (second highest fraction inhibited in the dose matrix, 72 h); higher = more inhibition; extreme values may be limits of the assay
I only need the number, thanks.

Incoming: Retrieve combination Emax measured for CC1(C)CCC(CN2CCN(c3ccc(C(=O)NS(=O)(=O)c4ccc(NCC5CCOCC5)c([N+](=O)[O-])c4)c(Oc4cnc5[nH]ccc5c4)c3)CC2)=C(c2ccc(Cl)cc2)C1 [Venetoclax] + C[C@@H]1COCCN1C2=NC(=NC(=C2)C3(CC3)[S@](=N)(=O)C)C4=C5C=CNC5=NC=C4 [AZD6738] (first compound max 1 µM, 7x7, partner max 10 µM) and print it.
Outgoing: 0.608

Incoming: Item CCN(CCO)CCCOc1ccc2c(Nc3cc(CC(=O)Nc4cccc(F)c4)[nH]n3)ncnc2c1 [AZD2811] + C[C@@H]1COCCN1C2=NC(=NC(=C2)C3(CC3)[S@](=N)(=O)C)C4=C5C=CNC5=NC=C4 [AZD6738] (first compound max 1 µM, 7x7, partner max 10 µM) : provide combination Emax
Outgoing: 0.824

Incoming: Write down combination Emax measured for item CC1(C)CCC(CN2CCN(c3ccc(C(=O)NS(=O)(=O)c4ccc(NCC5CCOCC5)c([N+](=O)[O-])c4)c(Oc4cnc5[nH]ccc5c4)c3)CC2)=C(c2ccc(Cl)cc2)C1 [Venetoclax] + C=CCn1c(=O)c2cnc(Nc3ccc(N4CCN(C)CC4)cc3)nc2n1-c1cccc(C(C)(C)O)n1 [AZD1775] (first compound max 1 µM, partner max 1 µM)
Outgoing: 0.903

Incoming: Supply reported combination Emax belonging to this compound: CC1(C)CCC(CN2CCN(c3ccc(C(=O)NS(=O)(=O)c4ccc(NCC5CCOCC5)c([N+](=O)[O-])c4)c(Oc4cnc5[nH]ccc5c4)c3)CC2)=C(c2ccc(Cl)cc2)C1 [Venetoclax] + C[C@@H](Nc1cc(F)cc(F)c1)c1cc(C(=O)N(C)C)cc2c(=O)cc(N3CCOCC3)oc12 [AZD8186] (first compound max 1 µM, 7x7, partner max 3 µM)
Outgoing: 0.131

Incoming: Note down combination Emax recorded for Cc1c2c(nn1C)CSCc1cc(n(C)n1)CSc1cc(c3ccccc3c1)OCCCc1c(C(=O)O)n(C)c3c-2c(Cl)ccc13 [AZD5991] + CCN(CCO)CCCOc1ccc2c(Nc3cc(CC(=O)Nc4cccc(F)c4)[nH]n3)ncnc2c1 [AZD2811] (first compound max 1 µM, 7x7, partner max 1 µM)
Outgoing: 0.891

Incoming: Give me measured combination Emax, please, for this compound: CN(CCO)CC[C@H](CSc1ccccc1)Nc1ccc(S(=O)(=O)NC(=O)c2ccc(N3CCC([C@@H](O)c4ccccc4-c4ccc(Cl)cc4)CC3)cc2)cc1S(=O)(=O)C(F)(F)F [AZD4320] + C[C@@H]1COCCN1C2=NC(=NC(=C2)C3(CC3)[S@](=N)(=O)C)C4=C5C=CNC5=NC=C4 [AZD6738] (first compound max 1 µM, 7x7, partner max 10 µM)
Outgoing: 0.647

Incoming: Annotate the compound COc1cccc(OCCCN)c1-c1cc(Nc2cnc(C#N)cn2)n[nH]1 [Prexasertib] + C[C@@H]1COCCN1C2=NC(=NC(=C2)C3(CC3)[S@](=N)(=O)C)C4=C5C=CNC5=NC=C4 [AZD6738] (first compound max 1 µM, 7x7, partner max 10 µM) with its measured combination Emax.
Outgoing: 0.713

Incoming: Please give measured combination Emax of the following entry: NC1(C(=O)N[C@@H](CCO)c2ccc(Cl)cc2)CCN(c2ncnc3[nH]ccc23)CC1 [Capivasertib] + CC(C)n1c(=O)n(C)c2cnc3cc(F)c(-c4ccc(OCCCN5CCCCC5)nc4)cc3c21 [AZD1390] (first compound max 10 µM, 7x7, partner max 0.3 µM)
Outgoing: 0.574

Incoming: Read off the recorded combination Emax for CCN(CCO)CCCOc1ccc2c(Nc3cc(CC(=O)Nc4cccc(F)c4)[nH]n3)ncnc2c1 [AZD2811] + O=C(c1cc(Cc2n[nH]c(=O)c3ccccc23)ccc1F)N1CCN(C(=O)C2CC2)CC1 [Olaparib] (first compound max 1 µM, 7x7, partner max 10 µM)
Outgoing: 0.551

Incoming: # return recorded combination Emax for input CN(CCO)CC[C@H](CSc1ccccc1)Nc1ccc(S(=O)(=O)NC(=O)c2ccc(N3CCC([C@@H](O)c4ccccc4-c4ccc(Cl)cc4)CC3)cc2)cc1S(=O)(=O)C(F)(F)F [AZD4320] + C[C@@H](Nc1cc(F)cc(F)c1)c1cc(C(=O)N(C)C)cc2c(=O)cc(N3CCOCC3)oc12 [AZD8186] (first compound max 1 µM, 7x7, partner max 3 µM)
Outgoing: 0.333

Incoming: Identify combination Emax associated with the compound Cc1cc2ncnn2cc1Nc1ncc2c(n1)n(C1CCOCC1)c(=O)n2C [AZD7648] + C[C@@H]1COCCN1C2=NC(=NC(=C2)C3(CC3)[S@](=N)(=O)C)C4=C5C=CNC5=NC=C4 [AZD6738] (first compound max 10 µM, 7x7, partner max 10 µM)
Outgoing: 0.517

Incoming: Quick one: give measured combination Emax for C[C@@H](c1ccc2nccn2c1)n1nnc2ncc(-c3cnn(C)c3)nc21 [Savolitinib] + Cc1c2c(nn1C)CSCc1cc(n(C)n1)CSc1cc(c3ccccc3c1)OCCCc1c(C(=O)O)n(C)c3c-2c(Cl)ccc13 [AZD5991] (first compound max 1 µM, 7x7, partner max 1 µM)
Outgoing: 0.285

Incoming: Identify measured combination Emax corresponding to COc1cccc(OCCCN)c1-c1cc(Nc2cnc(C#N)cn2)n[nH]1 [Prexasertib] + CN(C)CCCOc1ccc(-c2ccc3ncc4c(c3c2)n(C2CCOCC2)c(=O)n4C)cn1 [AZD0156] (first compound max 1 µM, 7x7, partner max 1 µM)
Outgoing: 0.735

Entry source: the supplement of paper PMC11061612
